// provenance: patent US9539260B2

molecular target: PI3K delta (Homo sapiens (Human)); assay: Enzymatic PI3K delta isoform inhibition (lipid kinase activity, Kinase-Glo luminescence); conditions: Enzymatic assay
Sequence (O00329 other isoform, or with tags, fused parts or gaps linker GGGGGG): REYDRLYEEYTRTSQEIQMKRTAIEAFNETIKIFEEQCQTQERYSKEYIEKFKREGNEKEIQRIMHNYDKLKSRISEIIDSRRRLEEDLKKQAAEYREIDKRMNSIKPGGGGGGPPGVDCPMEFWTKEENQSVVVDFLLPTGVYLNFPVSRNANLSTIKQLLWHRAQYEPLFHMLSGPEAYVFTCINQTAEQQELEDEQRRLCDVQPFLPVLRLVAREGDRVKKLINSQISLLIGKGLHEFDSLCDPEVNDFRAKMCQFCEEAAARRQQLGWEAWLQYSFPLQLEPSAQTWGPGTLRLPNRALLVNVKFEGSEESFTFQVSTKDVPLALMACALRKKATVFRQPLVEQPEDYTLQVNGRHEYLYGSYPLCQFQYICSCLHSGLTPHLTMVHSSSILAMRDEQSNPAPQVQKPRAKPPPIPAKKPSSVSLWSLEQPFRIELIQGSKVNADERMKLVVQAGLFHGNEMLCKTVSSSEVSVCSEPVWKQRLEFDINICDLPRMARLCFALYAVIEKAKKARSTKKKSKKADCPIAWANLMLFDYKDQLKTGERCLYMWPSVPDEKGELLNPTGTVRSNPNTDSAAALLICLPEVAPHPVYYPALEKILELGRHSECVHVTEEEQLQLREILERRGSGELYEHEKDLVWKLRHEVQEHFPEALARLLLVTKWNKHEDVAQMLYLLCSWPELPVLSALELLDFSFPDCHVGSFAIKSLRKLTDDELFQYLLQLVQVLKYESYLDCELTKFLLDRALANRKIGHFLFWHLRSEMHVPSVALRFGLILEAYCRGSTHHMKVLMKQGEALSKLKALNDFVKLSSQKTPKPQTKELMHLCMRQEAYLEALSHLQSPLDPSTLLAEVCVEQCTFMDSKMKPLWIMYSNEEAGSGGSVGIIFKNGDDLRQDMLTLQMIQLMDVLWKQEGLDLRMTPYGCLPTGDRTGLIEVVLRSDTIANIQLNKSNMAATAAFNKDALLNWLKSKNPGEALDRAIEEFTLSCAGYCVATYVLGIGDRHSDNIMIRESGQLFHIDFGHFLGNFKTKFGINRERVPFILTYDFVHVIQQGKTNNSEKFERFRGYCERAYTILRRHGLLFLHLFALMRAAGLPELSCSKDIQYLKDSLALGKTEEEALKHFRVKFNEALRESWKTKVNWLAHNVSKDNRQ
pIC50: −log10 of the molar value.
endpoint.label: pIC50

I: COc1ncc(N2CCOc3ccc(O[C@H]4CCN(C(=O)C5CCOC5)C4)cc32)cc1C (stereo partly shown) [Example B94]
II: Cc1cc(N2CCOc3ccc(O[C@H]4CCN(C(=O)c5cn(C)cn5)C4)cc32)cnc1S(C)(=O)=O
[Q] Returns: the label, I or II , whose recorded pIC50 is the lower number. Respond using the label that marks the chosen record.
[A] II
(II: 7.60, I: 8.30)

A: COc1ncc(N2CCOc3ccc(O[C@H]4CCN(C(=O)CCS(C)(=O)=O)C4)cc32)cc1F
B: COc1ncc(N2CCOc3ccc(O[C@H]4CCN(C(=O)CN(C)C)C4)cc32)cc1C#N
[Q] Returns: the label, A or B , whose recorded pIC50 is the lower number. Respond using the label that marks the chosen record.
[A] A
(A: 7.59, B: 8.05)

a: COc1ncc(N2CCOc3ccc(O[C@H]4CCN(C(=O)C5CCNCC5)C4)cc32)cc1C#N
b: COc1ncc(N2CCOc3ccc(O[C@H]4CCN(C(=O)C5CCS(=O)(=O)CC5)C4)cc32)cc1C(F)(F)F
[Q] Returns: the label, a or b , whose recorded pIC50 is the lower number. Respond using the label that marks the chosen record.
[A] a

A: COc1ncc(N2CCOc3ccc(O[C@H]4CCN(C(=O)CCO)C4)cc32)cc1F
B: Cc1cc(N2CCOc3ccc(O[C@H]4CCN(C(=O)C5CCOCC5)C4)cc32)ccn1
C: Cc1cc(N2CCOc3ccc(O[C@H]4CCN(C(=O)[C@H]5CC[C@H](O)CC5)C4)cc32)cnc1S(C)(=O)=O
D: Cc1cc(N2CCOc3cnc(O[C@H]4CCN(C(=O)C5CCOCC5)C4)cc32)cnc1S(C)(=O)=O
[Q] Sort by pIC50, descending. Provide the labels, sequenced as the question asks.
[A] D, C, A, B
(D: 8.52, C: 7.89, A: 6.96, B: 6.42)

###

target: UniProt P42336; experiment: Enzymatic PI3K alpha isoform inhibition (lipid kinase activity, Kinase-Glo luminescence); conditions: Enzymatic assay
endpoint.label: IC50 (µM)

compound | unit | IC50
COC(=O)N1CC[C@H](Oc2ccc3c(c2)N(c2cnc(OC)c(C#N)c2)CCO3)C1 [Example D11] | µM | 0.442

P: COc1ncc(N2CCOc3ccc(O[C@H]4CCN(C(=O)C5COCCO5)C4)cc32)cc1C#N (stereo partly shown) [Example C25]
Q: COc1ncc(N2CCOc3ccc(O[C@H]4CCN(C(=O)C5CCS(=O)(=O)CC5)C4)c(C)c32)cc1C [V]
R: COCC(=O)N1CC[C@H](Oc2cc3c(cn2)OCCN3c2cnc(OC)c(C(F)F)c2)C1 [Example F9]
S: COCCC(=O)N1CC[C@H](Oc2ccc3c(c2)N(c2cnc(OC)c(F)c2)CCO3)C1 [Example B114]
T: COc1ncc(N2CCOc3ccc(O[C@H]4CCN(C(=O)c5ccno5)C4)cc32)cc1C#N [Example C9]
[Q] Sort the compounds on IC50; start with the lowest figure. Provide the labels, sequenced as the question asks.
[A] R, T, P, S, Q

###

target: PI3K alpha (Homo sapiens (Human), UniProt P42336); experiment: Enzymatic PI3K alpha isoform inhibition (lipid kinase activity, Kinase-Glo luminescence); conditions: Enzymatic assay
Sequence (P42336 other isoform, or with tags, fused parts or gaps): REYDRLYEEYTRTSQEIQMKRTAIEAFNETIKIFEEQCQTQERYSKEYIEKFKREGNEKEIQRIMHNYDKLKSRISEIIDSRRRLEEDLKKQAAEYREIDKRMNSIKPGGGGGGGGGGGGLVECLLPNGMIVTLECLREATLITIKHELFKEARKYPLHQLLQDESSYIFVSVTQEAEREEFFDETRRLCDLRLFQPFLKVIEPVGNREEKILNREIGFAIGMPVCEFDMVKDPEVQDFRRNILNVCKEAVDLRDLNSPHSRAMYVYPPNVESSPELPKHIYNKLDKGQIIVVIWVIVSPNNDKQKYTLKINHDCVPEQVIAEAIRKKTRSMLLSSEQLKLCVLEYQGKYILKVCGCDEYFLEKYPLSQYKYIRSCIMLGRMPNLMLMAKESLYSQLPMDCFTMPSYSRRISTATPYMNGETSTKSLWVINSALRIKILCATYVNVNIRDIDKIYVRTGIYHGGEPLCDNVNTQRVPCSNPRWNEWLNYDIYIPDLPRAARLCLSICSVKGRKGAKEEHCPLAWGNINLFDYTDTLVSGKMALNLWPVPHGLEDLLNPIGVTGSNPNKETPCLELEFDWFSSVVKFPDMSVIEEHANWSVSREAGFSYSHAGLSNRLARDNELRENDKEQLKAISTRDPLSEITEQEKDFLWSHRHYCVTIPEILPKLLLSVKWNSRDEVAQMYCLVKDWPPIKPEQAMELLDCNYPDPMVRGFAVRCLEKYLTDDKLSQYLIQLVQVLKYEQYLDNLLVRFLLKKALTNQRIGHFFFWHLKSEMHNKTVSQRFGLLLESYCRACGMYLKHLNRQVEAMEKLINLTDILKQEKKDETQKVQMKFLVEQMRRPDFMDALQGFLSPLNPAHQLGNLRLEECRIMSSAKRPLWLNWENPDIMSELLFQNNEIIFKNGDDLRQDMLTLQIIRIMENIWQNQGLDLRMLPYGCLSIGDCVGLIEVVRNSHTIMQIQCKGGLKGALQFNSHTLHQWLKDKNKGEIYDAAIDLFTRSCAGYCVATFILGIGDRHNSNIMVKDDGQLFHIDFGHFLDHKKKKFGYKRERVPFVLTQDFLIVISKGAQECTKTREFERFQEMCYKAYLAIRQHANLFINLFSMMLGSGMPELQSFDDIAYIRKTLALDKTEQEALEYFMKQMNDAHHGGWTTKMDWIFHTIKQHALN
endpoint.label: IC50 (nM)

# count of solved cases: 5
compound | IC50 (nM)
COc1ncc(N2CCOc3ccc(O[C@H]4CCN(C(=O)CC#N)C4)cc32)cc1F [Example B116] | 304
COc1ncc(N2CCOc3ccc(O[C@H]4CCN(C(=O)C5CCS(=O)(=O)CC5)C4)c(F)c32)cc1C(F)F [Example I2] | 308
CCC(=O)N1CC[C@H](Oc2ccc3c(c2)N(c2ccc(OC)c(S(=O)(=O)N(C)C)c2)CCO3)C1 [Example A15] | 4890
CCC(=O)N1CC[C@H](Oc2ccc3c(c2)N(c2ccc(OC)c(C(F)(F)F)c2)CCO3)C1 [Example A41] | 2790
COc1ncc(N2CCOc3ccc(O[C@H]4CCN(C(=O)c5cocn5)C4)cc32)cc1C#N [Example D18] | 281

I: COCC(=O)N1CC[C@H](Oc2ccc3c(c2)N(c2cnc(OC)c(OC)c2)CCO3)C1 [Example B44]
II: COc1ncc(N2CCOc3ccc(O[C@H]4CCN(C(=O)C5CCOCC5)C4)cc32)cc1C [Example A1]
III: CCC(=O)N1CC[C@H](Oc2ccc3c(c2)N(c2cnc(Cl)c(OC)c2)CCO3)C1 [Example B55]
IV: Cc1cc(N2CCOc3ccc(O[C@H]4CCN(C(=O)c5cn(C)cn5)C4)cc32)cnc1S(C)(=O)=O [Example B8]
V: COc1ncc(N2CCOc3ccc(O[C@H]4CCN(C(=O)C5CCOC5)C4)cc32)cc1F (stereo partly shown) [Example B98]
[Q] Sort the compounds on IC50; start with the lowest figure. Provide the labels, sequenced as the question asks.
[A] I, IV, II, V, III

###

molecular target: PI3K delta (Homo sapiens (Human)); assay: Enzymatic PI3K delta isoform inhibition (lipid kinase activity, Kinase-Glo luminescence); conditions: Enzymatic assay
endpoint.label: IC50 (nM)

compound | endpoint.label | experimental.result
CCC(=O)N1CC[C@H](Oc2ccc3c(c2)N(c2ccc([S+]([O-])CC)nc2)CCO3)C1 (stereo partly drawn) | IC50 | 75
CCC(=O)N1CC[C@H](Oc2ccc3c(c2)N(c2cnc(OC)c(F)c2)CCO3)C1 | IC50 | 69
COc1ncc(N2CCOc3ccc(O[C@H]4CCN(C(=O)CS(C)(=O)=O)C4)cc32)cc1F | IC50 | 60

I: COCC(=O)N1CC[C@H](Oc2cc3c(cn2)OCCN3c2cnc(S(C)(=O)=O)c(C(F)F)c2)C1
II: CCC(=O)N1CC[C@H](Oc2ccc3c(c2)N(c2cncc(S(=O)(=O)N(C)C)c2)CCO3)C1
[Q] Returns: the label, I or II , whose recorded IC50 is the lower number. Respond using the label that marks the chosen record.
[A] II

1: CC(C)S(=O)(=O)c1cncc(N2CCOc3ccc(O[C@H]4CCN(C(=O)C5CCS(=O)(=O)CC5)C4)cc32)c1
2: COc1ncc(N2CCOc3ccc(O[C@H]4CCN(C(=O)c5ccn(C)n5)C4)cc32)cc1C
3: COc1ncc(N2CCOc3ccc(O[C@@H]4CCN(C(=O)C5CCOCC5)C4)cc32)cc1C#N
4: CCC(=O)N1CC[C@H](Oc2ccc3c(c2)N(c2cncc(S(=O)(=O)N4CCOCC4)c2)CCO3)C1
[Q] Sort by IC50, descending. Provide the labels, sequenced as the question asks.
[A] 3, 1, 4, 2
(3: 243 nM, 1: 41 nM, 4: 22 nM, 2: 13 nM)

###

target: PI3K alpha (Homo sapiens (Human), UniProt P42336); test: Enzymatic PI3K alpha isoform inhibition (lipid kinase activity, Kinase-Glo luminescence); conditions: Enzymatic assay
endpoint.label: IC50 (nM)

molecule | tested.target | IC50 (nM)
COc1ncc(N2CCOc3ccc(O[C@H]4CCN(C(=O)C5CCOC5)C4)cc32)cc1C#N (single isomer, unassigned) [Example D29] | PI3K alpha (Homo sapiens (Human), UniProt P42336) | 534
COc1ncc(N2CCOc3ccc(O[C@H]4CCN(C(=O)CS(C)(=O)=O)C4)cc32)cc1C#N | PI3K alpha (Homo sapiens (Human), UniProt P42336) | 353
CS(=O)(=O)c1ncc(N2CCOc3ccc(O[C@H]4CCN(C(=O)C5CCOCC5)C4)cc32)cc1C(F)F | PI3K alpha (Homo sapiens (Human), UniProt P42336) | 134
COc1ncc(N2CCOc3ccc(O[C@H]4CCN(C(=O)C5CCS(=O)(=O)CC5)C4)cc32)cc1Cl | PI3K alpha (Homo sapiens (Human), UniProt P42336) | 365
O=C(C1CCOCC1)N1CC[C@H](Oc2ccc3c(c2)N(c2cncc(Cl)c2)CCO3)C1 | PI3K alpha (Homo sapiens (Human), UniProt P42336) | 773
Cc1cc(N2CCOc3ccc(O[C@H]4CCN(C(=O)C5CCS(=O)(=O)CC5)C4)cc32)cnc1OC(F)F | PI3K alpha (Homo sapiens (Human), UniProt P42336) | 1770
CCC(=O)N1CC[C@H](Oc2ccc3c(c2)N(c2ccc([S+]([O-])CC)nc2)CCO3)C1 (some centres unmarked) | PI3K alpha (Homo sapiens (Human), UniProt P42336) | 3360
[2H]C1([2H])COc2ccc(O[C@H]3CCN(C(=O)C4CCOCC4)C3)cc2N1c1cnc(OC)c(C)c1 (single isomer, unassigned) | PI3K alpha (Homo sapiens (Human), UniProt P42336) | 1140

1: COc1ncc(N2CCOc3ccc(O[C@H]4CCN(C(=O)C5CCOC5)C4)cc32)cc1C (some centres unmarked) [Example B16]
2: CCC(=O)N1CC[C@H](Oc2ccc3c(c2)N(c2cncc(S(=O)(=O)C(C)C)c2)CCO3)C1
3: COc1ncc(N2CCOc3ccc(O[C@H]4CCN(C(=O)c5cn[nH]c5)C4)cc32)cc1C#N
4: COc1ncc(N2CCOc3ccc(O[C@H]4CCN(CC5CCN(C)CC5)C4)cc32)cc1C#N
5: COc1ncc(N2CCOc3ccc(O[C@H]4CCN(C(=O)c5cc[nH]c(=O)c5)C4)cc32)cc1C
[Q] Sort by IC50, descending. Provide the labels, sequenced as the question asks.
[A] 1, 4, 5, 2, 3
